Where these numbers come from: ChEMBL document CHEMBL5154802

Target: PXR (NR1I2) (Homo sapiens, UniProt O75469)
Sequence (O75469 whole entry): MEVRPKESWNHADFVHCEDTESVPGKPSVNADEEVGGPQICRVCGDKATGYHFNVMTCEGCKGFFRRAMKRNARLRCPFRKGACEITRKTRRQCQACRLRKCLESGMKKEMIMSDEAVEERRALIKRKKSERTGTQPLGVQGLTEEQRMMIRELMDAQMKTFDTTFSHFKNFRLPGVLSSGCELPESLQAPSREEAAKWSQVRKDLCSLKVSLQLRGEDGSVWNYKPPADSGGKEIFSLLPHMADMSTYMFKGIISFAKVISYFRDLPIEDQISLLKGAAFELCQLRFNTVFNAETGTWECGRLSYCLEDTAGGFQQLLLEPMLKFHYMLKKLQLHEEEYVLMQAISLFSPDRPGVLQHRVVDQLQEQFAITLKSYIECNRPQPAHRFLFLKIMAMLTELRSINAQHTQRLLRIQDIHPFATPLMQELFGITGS
Test: Transactivation of human PXR transfected in HepG2 cells assessed as CYP450 induction by measuring fold activation at 10 uM by luciferase reporter gene assay
Format: ADME, cell-based
Conditions: HepG2 cells transfected with human PXR, read-out: FC
quantity_measured: fold induction at 10 µM

INSERT INTO results (smiles_structure, experimental_result) VALUES
  ('Cn1cc2cc(-n3cc4ccc(OCC(F)F)nc4c(-c4ccc(Cl)cc4)c3=O)ccc2n1', 3.8),
  ('O=c1c(-c2ccc(Br)cc2)c2nc(NCC(F)(F)F)ncc2cn1-c1ccc2ncccc2c1', 5.3);

* * *

target: S-adenosylmethionine synthase isoform type-2 (Homo sapiens); test: Inhibition of recombinant human MAT2A expressed in baculovirus infected Sf9 cells assessed as S-adenosyl methionine production using L-methionine as substrate preincubated for 60 mins followed by substrate addition and measured after 60 mins in presence of ATP
Sequence (P31153 whole entry, canonical isoform): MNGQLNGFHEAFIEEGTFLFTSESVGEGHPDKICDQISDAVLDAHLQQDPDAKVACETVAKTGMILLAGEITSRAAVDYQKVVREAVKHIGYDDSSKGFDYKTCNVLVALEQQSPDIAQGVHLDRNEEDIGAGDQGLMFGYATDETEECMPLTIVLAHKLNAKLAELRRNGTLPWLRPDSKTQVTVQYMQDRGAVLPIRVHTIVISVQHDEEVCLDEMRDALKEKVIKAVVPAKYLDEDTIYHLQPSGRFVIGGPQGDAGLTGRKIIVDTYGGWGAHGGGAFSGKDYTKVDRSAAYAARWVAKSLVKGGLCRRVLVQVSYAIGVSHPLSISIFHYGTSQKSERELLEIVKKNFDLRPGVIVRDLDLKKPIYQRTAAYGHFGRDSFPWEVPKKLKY
pIC50: −log10 of the molar value.
quantity_measured: pIC50

INSERT INTO assay_data (compound, quantity_measured, experimental_result) VALUES
  ('COc1ccc(N2Cc3cnc(NCC4CC4)nc3C3(CCN(Cc4ccccc4F)C3)C2=O)cc1 (configuration not stated)', 'pIC50', 6.49),
  ('COc1ccc(N2Cc3c(C)nc(NCC4CC4)nc3C3(CCN(Cc4ccccc4F)C3)C2=O)cc1 (configuration not stated)', 'pIC50', 6.60),
  ('COc1ccc(-n2cc3cnc(NCC(F)(F)F)nc3c(-c3ccc(Br)cc3)c2=O)cc1', 'pIC50', 7.66);

[A] COc1ccc(N2Cc3cnc(NCC4CC4)nc3C3(CCN(Cc4cn[nH]c4)C3)C2=O)cc1 (configuration not stated)
[B] COc1ccc(N2Cc3cnc(NCC4CC4)nc3C3(CCN(Cc4cc[nH]c4)C3)C2=O)cc1 (configuration not stated)
Problem: // which entry has the larger pIC50 value, A or B ? // caller expects the label of the chosen entry
Solution: B
(B: 5.70, A: 5.11)

[1] COc1ccc(-n2cc3cnc(NCC4CC4)nc3c(-c3ccc(Br)cc3)c2=O)cc1
[2] COc1ccc(N2Cc3cnc(NCC4CC4)nc3C3(CCN(Cc4cc[nH]n4)C3)C2=O)cc1 (configuration not stated)
Problem: Just tell me: smaller pIC50 value, 1 or 2 ? // caller expects the label of the chosen entry
Solution: 2
(2: 6.16, 1: 7.27)

* * *

target: S-adenosylmethionine synthase isoform type-2 (Homo sapiens); experiment: Inhibition of […] in MTAP-null human HCT-116 cells after 72 hrs by LC-MS/MS analysis; type: cell-based, HCT116-MTAP null
quantity_measured: IC50 (nM)

[I] O=c1c(-c2ccc(Br)cc2)c2nc(NCC(F)(F)F)ncc2cn1-c1ccc2ncccc2c1
[II] COc1ccc(-n2cc3cnc(NCC(F)(F)F)nc3c(-c3ccc(Cl)cc3)c2=O)cc1
[III] Cc1nc2ccc(-n3cc4cnc(NCC(F)(F)F)nc4c(-c4ccc(Cl)cc4)c3=O)cc2n1C
[IV] Cn1cc2cc(-n3cc4cnc(NCC(F)(F)F)nc4c(-c4ccc(Cl)cc4)c3=O)ccc2n1
Problem: Arrange the items listed above so that IC50 rises from first to last. Lab note: final answer is the ordered label list.
Solution: IV, III, I, II
(IV: 14 nM, III: 21 nM, I: 46 nM, II: 113 nM)
